Origin of measurements: ChEMBL document CHEMBL1127095

tested on: Mus musculus; assay: Tested for the ability to inhibit the NMDA induced (250mg/Kg, intraperitoneally) seizures in male CF-1 mice given 15 min prior to NMDA (intracerebroventricularly); assay type: functional
I'd appreciate it if you could supply ED50 values for the items below.
Give bare numbers, in nmol.

Please review the following examples before continuing.
- compound: "N[C@@H](C[C@@H]1CCCC[C@@H]1CCP(=O)(O)O)C(=O)O"
  ED50 (nmol): 8.5
- compound: "NC(C[C@@H]1CCCC[C@H]1CCP(=O)(O)O)C(=O)O (stereo in doubt; (-))"
  ED50 (nmol): 20

Data request: Identify measured ED50 corresponding to NC(C[C@@H]1CCCC[C@H]1CCP(=O)(O)O)C(=O)O (stereo in doubt; (+))
Data returned: 49

----------
test: Tested for the lethal dose by intraperitoneal administration; assay type: ADME; settings: mouse, ip
measure: LD50

Data request: Please report the measured LD50 for N[C@H](C[C@H]1CCCCC1CCP(=O)(O)O)C(=O)O (single isomer, unassigned)
Data returned: > 1000 mg/kg

----------
tested on: Mus musculus; assay: Tested for the ability to inhibit the NMDA induced (250mg/Kg, intraperitoneally) seizures in male CF-1 mice given 15 min prior to NMDA (intracerebroventricularly); assay type: functional
ED50 vs 1 nmol: less than gives criterion met; not less than gives criterion not met.

These solved cases illustrate the format of a correct answer.
- molecule: "N[C@H](C[C@@H]1CCCC[C@@H]1CCP(=O)(O)O)C(=O)O"
  label class: "criterion not met"
- molecule: "O=C(O)[C@@H]1C[C@H](CP(=O)(O)O)CCN1 (single isomer, unassigned)"
  label class: "criterion met"
- molecule: "O=C(O)C1CN(CCCP(=O)(O)O)CCN1 (racemic)"
  label class: "criterion not met"

Data request: Here's an entry: N[C@H](C[C@H]1CCCCC1CCP(=O)(O)O)C(=O)O (single isomer, unassigned) . Is its ED50 below 1 nmol?
Data returned: criterion met

Data request: Does this molecule meet the criterion ED50 < 1 nmol? N[C@@H](C[C@H]1CCCC[C@H]1CCP(=O)(O)O)C(=O)O
Data returned: criterion not met

----------
target: Glutamate NMDA receptor; test: Tested for the ability to inhibit the specific binding of [3H]-CGS- 19755 to NMDA recognition sites on rat brain membranes
measure: pIC50
Give bare numbers, as −log10 of the molar value.

- compound: "N[C@H](C[C@H]1CCCCC1CCP(=O)(O)O)C(=O)O (single isomer, unassigned)"
  measure: "pIC50"
  val: 6.57
- compound: "NC(C[C@@H]1CCCC[C@H]1CCP(=O)(O)O)C(=O)O (stereo in doubt; (-))"
  measure: "pIC50"
  val: 5.39

I would be grateful if you could provide pIC50 for each of the following entries.
1. NC(C[C@@H]1CCCC[C@H]1CCP(=O)(O)O)C(=O)O (stereo in doubt; (+))
2. O=C(O)C1CN(CCCP(=O)(O)O)CCN1 (racemic)
3. N[C@@H](C[C@H]1CCCC[C@H]1CCP(=O)(O)O)C(=O)O
4. N[C@@H](C[C@@H]1CCCC[C@@H]1CCP(=O)(O)O)C(=O)O
5. N[C@H](C[C@@H]1CCCC[C@@H]1CCP(=O)(O)O)C(=O)O
6. O=C(O)[C@@H]1C[C@H](CP(=O)(O)O)CCN1 (single isomer, unassigned)

Data returned:
4.55
6.72
5.59
5.62
5.25
7.06
